Value source: ChEMBL document CHEMBL1938363

- Protocol: Inhibition of amyloid beta (1 to 42)-mediated damage in Sprague-Dawley rat neurons assessed as dendritic extension at 1 uM administered 3 days after amyloid beta-challenge measured after 5 days by immunostaining method
Calls of active or inactive are those of the source. The rule behind the calls is not given here.

Smiles str | inhibition
N#C[C@]12CCC3(OCCO3)C3=CO[C@H](Cc4cc(O)ccc41)[C@@H]32 | Active
COc1cc2c(cc1O)C[C@H]1OC=C3[C@H]1[C@@]2(C#N)CCC31OCCO1 | Active
COc1cc2c(cc1O)[C@]1(C#N)CCC3(OCCO3)C3=CO[C@H](C2)[C@@H]31 | Active
N#C[C@]12CCC3(OCCO3)C3=CO[C@H](Cc4ccc(O)cc41)[C@@H]32 | Active

###

- Protocol: Inhibition of amyloid beta (25 to 35)-mediated damage in Sprague-Dawley rat neurons assessed as dendritic extension at 1 uM treated 4 days after amyloid beta-challenge measured after 4 days by immunostaining method
Calls of active or inactive are those of the source. No cut-off for these calls is given here.
Return exactly one item of active, inactive

These solved cases illustrate the format of a correct answer.
Smiles str | Category label
N#C[C@]12CCC3(OCCO3)C3=CO[C@H](Cc4cc(OS(=O)(=O)C(F)(F)F)ccc41)[C@@H]32 | inactive
N#C[C@]12CCC3(OCCO3)C3=CO[C@H](Cc4cc(OC(F)(F)F)ccc41)[C@@H]32 | inactive
N#C[C@]12CCC3(OCCO3)C3=CO[C@H](Cc4cc(-c5ccccc5)ccc41)[C@@H]32 | inactive
N#C[C@]12CCC3(OCCO3)C3=CO[C@H](Cc4cc(OCc5ccccc5)ccc41)[C@@H]32 | inactive

INPUT: Recorded test outcome, item N#C[C@]12CCC3(OCCO3)C3=CO[C@H](Cc4cc(OCc5cc(F)cc(F)c5)ccc41)[C@@H]32
OUTPUT: inactive

INPUT: Recorded test outcome, item N#C[C@]12CCC3(OCCO3)C3=CO[C@H](Cc4cc(O)ccc41)[C@@H]32
OUTPUT: active

INPUT: Recorded test outcome, item CC(C)[Si](Oc1ccc2c(c1)C[C@H]1OC=C3[C@H]1[C@@]2(C#N)CCC31OCCO1)(C(C)C)C(C)C
OUTPUT: inactive
